src = the NIST ThermoML archive (doi:10.1016/j.jct.2017.09.005)

# cond: 440 K; 101.33 kPa; Liquid; Small sample (50 mg) DSC
Numbers after ± are expanded uncertainties.
measuredQuantity: molar entropy
Could you write the number and then its unit?

The following molecules have reported results that may help.
INSERT INTO measurements (molecule, val) VALUES
  ('Cc1c[nH]c(C)c1 [2,4-dimethyl-1H-pyrrole]', '306.38 ± 7.1 J/K/mol'),
  ('Cc1ccc(C)[nH]1 [2,5-dimethyl-1H-pyrrole]', '298.28 ± 6.9 J/K/mol'),
  ('Cn1cccc1 [N-methylpyrrole]', '265.36 ± 6.2 J/K/mol');

Okay, next one:
## Task Could you share which molar entropy value was measured for c1cc[nH]c1 [pyrrole] ?
## Result 212.58 ± 4.9 J/K/mol

====

# cond: 500 K; 101.33 kPa; Liquid; Small sample (50 mg) DSC
± gives the expanded uncertainty stated by the source.
measuredQuantity: molar entropy
Don't forget the unit after the number, please.

INSERT INTO results (chemicalsmiles, val) VALUES
  ('Cn1cccc1', '290.66 ± 6.8 J/K/mol'),
  ('Cc1ccc(C)[nH]1', '330.75 ± 7.7 J/K/mol'),
  ('c1cc[nH]c1', '234.23 ± 5.4 J/K/mol');

Switching to the query record.
## Task Look up molar entropy for this compound: Cc1c[nH]c(C)c1
## Result 338.4 ± 7.9 J/K/mol

====

# testSummary: molar heat capacity at saturation pressure
# cond: 460 K; Liquid; Small sample (50 mg) DSC
measuredQuantity: molar heat capacity (J/K/mol)
Only the number, expressed in J/K/mol, is required.

INSERT INTO results (compound, val) VALUES
  ('Cc1ccc(C)[nH]1 [2,5-dimethyl-1H-pyrrole]', 251.53);

## Task Need molar heat capacity, item Cn1cccc1 [N-methylpyrrole]
## Result 194.81

## Task Given c1cc[nH]c1 [pyrrole] , state its recorded molar heat capacity.
## Result 167.28

## Task Looking for the measured molar heat capacity of Cc1c[nH]c(C)c1 [2,4-dimethyl-1H-pyrrole] , can you help?
## Result 247.84

====

Some compounds, each annotated with its measured mass density.
# cond: 398.12 K; Liquid; Vibrating tube method
Express it in kg/m3; write the number only.

Worked cases, mass density given:
INSERT INTO results (chemicalsmiles, val) VALUES
  ('Cc1ccc(C)[nH]1', 843.9),
  ('Cn1cccc1', 800.7),
  ('Cc1c[nH]c(C)c1', 830.6);

Shifting focus to the compound that follows.
## Task Reported mass density, compound c1cc[nH]c1 : ____
## Result 873.5

====

As shown below, each of these compounds has a reported Critical density value.
# cond: Liquid; DSC
API: value field is a number in kg/m3; no unit string.

A selection of reference data follows.
INSERT INTO results (compound, val) VALUES
  ('Cc1c[nH]c(C)c1 [2,4-dimethyl-1H-pyrrole]', 285.8),
  ('Cc1ccc(C)[nH]1 [2,5-dimethyl-1H-pyrrole]', 288.6);

## Task Would you kindly share the measured Critical density for c1cc[nH]c1 [pyrrole] ?
## Result 314.2

## Task Look up Critical density: Cn1cccc1 [N-methylpyrrole]
## Result 299.8

====

# cond: 373.12 K; Liquid; Vibrating tube method
measuredQuantity: mass density (kg/m3)
Answer format: numeric, kg/m3 implied, no suffix.

INSERT INTO measurements (chemicalsmiles, measuredquantity, val) VALUES
  ('Cc1ccc(C)[nH]1', 'mass density', 867.7);

## Task Item Cn1cccc1 has what recorded mass density?
## Result 828.2

## Task Which mass density value belongs to Cc1c[nH]c(C)c1 ?
## Result 853

## Task Name the reported mass density value associated with the compound c1cc[nH]c1
## Result 897.8

====

# cond: Liquid; DTA
Listing of entries alongside the reported Critical temperature.
Write the value in K as a bare number.

INSERT INTO assay_data (molecule, unittext, val) VALUES
  ('Cc1c[nH]c(C)c1 [2,4-dimethyl-1H-pyrrole]', 'K', 653),
  ('Cn1cccc1 [N-methylpyrrole]', 'K', 597),
  ('Cc1ccc(C)[nH]1 [2,5-dimethyl-1H-pyrrole]', 'K', 662);

We now examine a further molecule.
## Task Consider the molecule shown here: c1cc[nH]c1 [pyrrole] What is its recorded Critical temperature?
## Result 638.5

====

# cond: 520 K; 101.33 kPa; Liquid; Small sample (50 mg) DSC
measuredQuantity: molar entropy (J/K/mol)
# unit: J/K/mol | format: bare number

// solved cases for molar entropy follow
INSERT INTO assay_data (chemicalsmiles, measuredquantity, unittext, val) VALUES
  ('c1cc[nH]c1', 'molar entropy', 'J/K/mol', 241.22),
  ('Cc1c[nH]c(C)c1', 'molar entropy', 'J/K/mol', 348.69),
  ('Cn1cccc1', 'molar entropy', 'J/K/mol', 298.96);

Let us examine a further case.
## Task Need molar entropy of Cc1ccc(C)[nH]1 , thanks.
## Result 341.13

====

Each entry below carries its recorded molar heat capacity.
# testSummary: molar heat capacity at saturation pressure
# cond: 520 K; Liquid; Small sample (50 mg) DSC
Please reply with the bare figure in J/K/mol and do not write the unit itself.

Look over these answered cases.
INSERT INTO assay_data (compound, unittext, val) VALUES
  ('c1cc[nH]c1 [pyrrole]', 'J/K/mol', 180.48),
  ('Cn1cccc1 [N-methylpyrrole]', 'J/K/mol', 215.72);

## Task Quick one: molar heat capacity of Cc1c[nH]c(C)c1 [2,4-dimethyl-1H-pyrrole] ?
## Result 265.15

## Task So what's the measured molar heat capacity for this one? Cc1ccc(C)[nH]1 [2,5-dimethyl-1H-pyrrole]
## Result 267.56

====

Each item that follows carries a reported molar heat capacity.
# testSummary: molar heat capacity at saturation pressure
# cond: 500 K; Liquid; Small sample (50 mg) DSC
Unit J/K/mol implied. Number only.

The examples below pair each entry with its known result.
INSERT INTO results (chemicalsmiles, unittext, val) VALUES
  ('Cn1cccc1', 'J/K/mol', 208.14),
  ('c1cc[nH]c1', 'J/K/mol', 176.14),
  ('Cc1c[nH]c(C)c1', 'J/K/mol', 259.54);

Okay, now this molecule:
## Task Report molar heat capacity for Cc1ccc(C)[nH]1 please.
## Result 262.15

====

# cond: 480 K; 101.33 kPa; Liquid; Small sample (50 mg) DSC
Let's look at some compounds and their measured molar entropy.
# value in J/K/mol; strip the unit string

## Task Recorded molar entropy of Cc1c[nH]c(C)c1 , please.
## Result 327.92

## Task Query: molar entropy; subject: Cn1cccc1
## Result 282.3

## Task Bench note: what molar entropy did Cc1ccc(C)[nH]1 show?
## Result 320.16

## Task I have this compound here, c1cc[nH]c1 , and I need its recorded molar entropy.
## Result 227.13

====

# testSummary: molar heat capacity at saturation pressure
# cond: 440 K; Liquid; Small sample (50 mg) DSC
# molar heat capacity annotations
Express it in J/K/mol; write the number only.

Study these solved cases before continuing.
INSERT INTO measurements (chemicalsmiles, measuredquantity, unittext, val) VALUES
  ('Cn1cccc1', 'molar heat capacity', 'J/K/mol', 188.36),
  ('Cc1c[nH]c(C)c1', 'molar heat capacity', 'J/K/mol', 241.31),
  ('c1cc[nH]c1', 'molar heat capacity', 'J/K/mol', 162.62);

## Task Return reported molar heat capacity; argument: Cc1ccc(C)[nH]1
## Result 246

====

# cond: 460 K; 101.33 kPa; Liquid; Small sample (50 mg) DSC
Below, each of the compounds is paired with its reported molar entropy value.
Please state the figure in J/K/mol; there is no need to write the unit.

For orientation, consider the following solved cases.
INSERT INTO results (chemicalsmiles, measuredquantity, val) VALUES
  ('Cc1c[nH]c(C)c1', 'molar entropy', 317.25),
  ('Cc1ccc(C)[nH]1', 'molar entropy', 309.34),
  ('c1cc[nH]c1', 'molar entropy', 219.91);

Let's switch to this compound now.
## Task Find the recorded molar entropy belonging to Cn1cccc1 and report it.
## Result 273.88

====

# cond: 348.13 K; Liquid; Vibrating tube method
Numbers after ± are expanded uncertainties.
measuredQuantity: mass density
Remember to put the unit after the number in your answer.

INSERT INTO measurements (chemicalsmiles, measuredquantity, val) VALUES
  ('Cc1ccc(C)[nH]1', 'mass density', '890.3 ± 1.8 kg/m3'),
  ('Cn1cccc1', 'mass density', '854.2 ± 1.7 kg/m3'),
  ('c1cc[nH]c1', 'mass density', '921.2 ± 1.8 kg/m3');

Here is the next item to consider.
## Task Param item = Cc1c[nH]c(C)c1 ; retrieve measured mass density.
## Result 874.8 ± 1.8 kg/m3

====

# cond: 448.11 K; Liquid; Vibrating tube method
// reported mass density per item
Record the value in kg/m3, omitting the unit from your answer.

Example cases with answers are listed next.
INSERT INTO measurements (chemicalsmiles, measuredquantity, unittext, val) VALUES
  ('Cc1ccc(C)[nH]1', 'mass density', 'kg/m3', 793.5),
  ('Cn1cccc1', 'mass density', 'kg/m3', 741.1),
  ('c1cc[nH]c1', 'mass density', 'kg/m3', 820.2);

## Task mass density for Cc1c[nH]c(C)c1 ?
## Result 781.3
